Reported Selectivity ELISA values are given for each entry in this list.
# TEST TARGET: integrin α4β7 (Homo sapiens, UniProt P13612+P26010)
# Sequence (P13612 34-977 limits assumed): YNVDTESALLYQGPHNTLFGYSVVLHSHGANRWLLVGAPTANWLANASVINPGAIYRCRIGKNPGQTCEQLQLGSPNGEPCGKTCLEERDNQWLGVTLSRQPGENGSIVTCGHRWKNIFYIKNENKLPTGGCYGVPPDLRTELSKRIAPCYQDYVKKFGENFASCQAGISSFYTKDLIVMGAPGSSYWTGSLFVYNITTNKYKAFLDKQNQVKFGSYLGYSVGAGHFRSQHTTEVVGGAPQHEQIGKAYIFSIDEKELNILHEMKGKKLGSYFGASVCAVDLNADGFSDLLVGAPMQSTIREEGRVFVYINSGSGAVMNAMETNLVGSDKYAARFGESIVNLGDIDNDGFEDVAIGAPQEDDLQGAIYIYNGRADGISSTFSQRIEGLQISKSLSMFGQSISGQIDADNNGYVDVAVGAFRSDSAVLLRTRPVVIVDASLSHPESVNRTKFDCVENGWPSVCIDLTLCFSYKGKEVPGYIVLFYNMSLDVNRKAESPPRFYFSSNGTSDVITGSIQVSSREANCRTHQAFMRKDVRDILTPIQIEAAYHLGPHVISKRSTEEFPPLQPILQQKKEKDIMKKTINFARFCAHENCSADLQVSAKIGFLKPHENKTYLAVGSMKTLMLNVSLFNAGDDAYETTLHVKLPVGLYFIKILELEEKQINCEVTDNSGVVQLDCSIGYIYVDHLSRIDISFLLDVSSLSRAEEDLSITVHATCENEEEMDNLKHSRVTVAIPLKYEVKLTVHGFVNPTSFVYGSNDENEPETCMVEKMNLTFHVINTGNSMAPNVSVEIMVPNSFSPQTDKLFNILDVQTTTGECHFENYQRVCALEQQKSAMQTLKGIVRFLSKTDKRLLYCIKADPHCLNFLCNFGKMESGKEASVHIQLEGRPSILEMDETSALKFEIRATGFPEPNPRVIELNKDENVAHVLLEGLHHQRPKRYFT
# Sequence (P26010 20-723 limits assumed): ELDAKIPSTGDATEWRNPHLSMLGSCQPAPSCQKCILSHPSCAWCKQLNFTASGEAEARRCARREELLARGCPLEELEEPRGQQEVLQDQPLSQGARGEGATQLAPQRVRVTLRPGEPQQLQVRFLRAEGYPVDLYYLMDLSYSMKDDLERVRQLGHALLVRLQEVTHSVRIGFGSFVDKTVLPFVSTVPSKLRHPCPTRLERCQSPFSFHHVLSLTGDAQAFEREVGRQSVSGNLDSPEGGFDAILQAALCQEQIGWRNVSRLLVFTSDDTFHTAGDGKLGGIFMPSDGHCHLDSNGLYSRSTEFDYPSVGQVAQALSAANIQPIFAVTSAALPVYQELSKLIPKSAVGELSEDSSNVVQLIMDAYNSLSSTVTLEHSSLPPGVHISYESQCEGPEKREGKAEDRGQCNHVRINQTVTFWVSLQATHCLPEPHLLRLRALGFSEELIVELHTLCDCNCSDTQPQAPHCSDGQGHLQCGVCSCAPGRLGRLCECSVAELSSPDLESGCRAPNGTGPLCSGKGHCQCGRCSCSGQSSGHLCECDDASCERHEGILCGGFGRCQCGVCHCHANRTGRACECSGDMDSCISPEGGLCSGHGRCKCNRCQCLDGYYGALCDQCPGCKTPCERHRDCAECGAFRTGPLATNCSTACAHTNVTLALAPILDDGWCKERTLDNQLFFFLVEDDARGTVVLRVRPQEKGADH
# METHOD SUMMARY: Integrin α4β7—MAdCAM-1 competition assay (ELISA)
# Format: binding
# CONDITION DESCRIPTION: ratio a4b1 ELISA IC50 / a4b7 ELISA IC50
Output: the number by itself.

# example entries with known answers
{"columns": ["SMILES STRUCTURE", "TEST VALUE"],
 "data": [
  ["CC(C)C[C@@H]1NC(=O)[C@H]2CCCCN2C(=O)[C@H](Cc2ccccc2I)NC(=O)[C@@H]2CCCN2[C@H](C(=O)NC(C)(C)C)[C@H](C)NC(=O)[C@H]([C@@H](C)O)NC(=O)[C@H](CC(=O)O)NC1=O", 5.3],
  ["Cc1cccc(C)c1-c1ccc(C[C@@H]2NC(=O)[C@@H]3CCCN3[C@H](C(=O)NC(C)(C)C)[C@H](C)NC(=O)[C@H]([C@@H](C)O)NC(=O)[C@H](CC(=O)O)NC(=O)[C@H](CC(C)C)NC(=O)C[C@H](CCCCN)NC2=O)cc1", 24.6],
  ["CC(C)C[C@@H]1NC(=O)c2ccc(-c3ccccc3N3CCNCC3)c(c2)CNC(=O)[C@@H]2CCCN2[C@H](C(=O)NC(C)(C)C)[C@H](C)NC(=O)[C@H]([C@@H](C)O)NC(=O)[C@H](CC(=O)O)NC1=O", 1.5]
]}

Next molecule, please.
IN: Specify reported Selectivity ELISA for the molecule shown: CC(C)C[C@@H]1NC(=O)[C@@H]2C[C@@H](OCc3ccccc3)CN2C(=O)[C@@H]2CCCN2[C@H](C(=O)NC(C)(C)C)[C@H](C)NC(=O)[C@H]([C@@H](C)O)NC(=O)[C@H](CC(=O)O)NC1=O
OUT: 2.5
